From: patent US10047051B2

- System Tested: CFTR G551D mutant (Homo sapiens, UniProt P13569, G551D)
- Sequence (P13569 whole entry G551D): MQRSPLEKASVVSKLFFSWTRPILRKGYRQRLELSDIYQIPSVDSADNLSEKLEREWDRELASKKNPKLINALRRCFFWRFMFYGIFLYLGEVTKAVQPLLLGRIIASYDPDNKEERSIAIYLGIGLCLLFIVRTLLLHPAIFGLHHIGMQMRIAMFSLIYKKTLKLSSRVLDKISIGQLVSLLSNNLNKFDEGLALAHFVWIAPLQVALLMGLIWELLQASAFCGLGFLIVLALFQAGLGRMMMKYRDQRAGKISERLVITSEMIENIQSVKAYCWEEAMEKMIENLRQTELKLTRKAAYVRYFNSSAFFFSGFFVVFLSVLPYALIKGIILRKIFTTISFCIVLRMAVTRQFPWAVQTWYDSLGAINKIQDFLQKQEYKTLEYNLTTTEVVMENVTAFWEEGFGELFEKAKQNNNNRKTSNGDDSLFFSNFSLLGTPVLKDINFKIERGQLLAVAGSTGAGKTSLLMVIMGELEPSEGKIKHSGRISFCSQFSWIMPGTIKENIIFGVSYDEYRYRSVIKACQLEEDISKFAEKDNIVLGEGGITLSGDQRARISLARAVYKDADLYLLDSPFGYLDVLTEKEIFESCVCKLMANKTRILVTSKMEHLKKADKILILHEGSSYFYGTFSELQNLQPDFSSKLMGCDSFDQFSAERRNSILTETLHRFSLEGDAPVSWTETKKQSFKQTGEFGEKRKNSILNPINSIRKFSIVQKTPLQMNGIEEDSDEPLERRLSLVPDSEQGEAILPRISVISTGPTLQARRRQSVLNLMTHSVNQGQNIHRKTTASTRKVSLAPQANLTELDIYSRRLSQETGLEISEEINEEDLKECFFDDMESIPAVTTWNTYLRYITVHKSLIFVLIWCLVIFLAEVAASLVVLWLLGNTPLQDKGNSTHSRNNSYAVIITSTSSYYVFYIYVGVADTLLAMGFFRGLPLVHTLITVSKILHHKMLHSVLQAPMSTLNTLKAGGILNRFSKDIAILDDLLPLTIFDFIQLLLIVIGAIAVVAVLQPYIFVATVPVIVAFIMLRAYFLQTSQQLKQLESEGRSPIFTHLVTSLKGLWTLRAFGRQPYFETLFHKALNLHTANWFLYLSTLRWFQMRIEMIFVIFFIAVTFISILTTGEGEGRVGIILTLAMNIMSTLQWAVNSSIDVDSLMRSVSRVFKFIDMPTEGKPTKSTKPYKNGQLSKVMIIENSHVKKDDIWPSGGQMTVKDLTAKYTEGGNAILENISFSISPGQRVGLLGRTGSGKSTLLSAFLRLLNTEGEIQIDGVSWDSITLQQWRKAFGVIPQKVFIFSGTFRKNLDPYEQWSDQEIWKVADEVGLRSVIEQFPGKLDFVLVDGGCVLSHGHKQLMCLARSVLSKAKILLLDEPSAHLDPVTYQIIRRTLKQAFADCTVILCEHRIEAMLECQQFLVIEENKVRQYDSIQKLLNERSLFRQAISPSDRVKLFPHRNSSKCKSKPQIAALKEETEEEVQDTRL
- Assay Info: YFP-halide influx assay for the CFTR-G551D mutation (HEK293 cells)
- Test Settings: forskolin 10.67 μM
The label yes (1) is reserved for EC50 strictly under 1000 nM; no (0) covers values equal to or above it.

Does CC(C)COCC(O)CNC(=O)c1ncc(S(=O)(=O)c2ccc(C(F)(F)F)cc2F)cc1N (stereo not shown) have EC50 strictly under 1000 nM?
yes (1)

How about this compound: CC(C)(O)CNC(=O)c1ncc(S(=O)(=O)c2ccc(C(F)(F)F)cc2)cc1N
yes (1)

Next record, please: C[C@@H](O)CNC(=O)c1ncc(S(=O)(=O)c2ccc(OC(F)(F)F)cc2)cc1N
yes (1)

Could you do the same for Nc1cc(S(=O)(=O)c2ccc(OC(F)(F)F)cc2)cnc1C(=O)N1CC(O)(C2CC2)C1 , please?
yes (1)

Would you kindly repeat that for COCC(O)CNC(=O)c1ncc(S(=O)(=O)c2ccc(OC(F)(F)F)cc2)cc1N (stereo not shown) ?
no (0)

Follow-up item: Nc1cc(S(=O)(=O)c2ccc(C(F)(F)F)cc2F)cnc1C(=O)N1CC(OC(F)F)C1
yes (1)

Moving on to Nc1cc(S(=O)(=O)c2ccccc2OC(F)(F)F)cnc1C(=O)N1CC(O)C1
no (0)

Param item: CN1CCC(O)(CNC(=O)c2ncc(S(=O)(=O)c3ccc(OC(F)(F)F)cc3)cc2N)CC1
no (0)

Param item: CC(C)(O)CCNC(=O)c1ncc(S(=O)(=O)c2ccc(OC(F)(F)F)cc2)cc1N
no (0)

Same thing, different compound: C[C@H](O)CNC(=O)c1ncc(S(=O)(=O)N(C)C2CCC2)cc1N
no (0)

Another compound to look at: COCC(O)CNC(=O)c1ncc(S(=O)(=O)c2ccc(C(F)(F)F)cc2)cc1N (stereo not shown)
no (0)

Please do the same for Nc1cc(S(=O)(=O)c2ccc(OC(F)(F)F)cc2)cnc1C(=O)NCC1(CO)CC1 as well.
yes (1)

Thanks! And Nc1cc(S(=O)(=O)c2cccc(F)c2)cnc1C(=O)N1CC(O)(C(F)(F)F)C1 ?
no (0)

Moving on to Nc1cc(S(=O)(=O)c2ccc(OC(F)(F)F)cc2)cnc1C(=O)NCC(O)C1CCOCC1 (stereo not shown)
no (0)

And what about the compound CCOCCOCC(O)CNC(=O)c1ncc(S(=O)(=O)c2ccc(OC(F)(F)F)cc2)cc1N (stereo not shown) ?
no (0)

Here is the next compound: Nc1cc(S(=O)(=O)c2ccc(OC(F)(F)F)cc2F)cnc1C(=O)N1CC(O)C1
no (0)

* * *

- System Tested: CFTR G551D mutant (Homo sapiens, UniProt P13569, G551D)
- Assay Info: YFP-halide influx assay for the CFTR-G551D mutation (HEK293 cells)
- Test Settings: forskolin 10.67 μM
Quantity Measured: EC50 (nM)
Just the number in nM, nothing appended.

Item Nc1cc(S(=O)(=O)c2ccc(OC(F)(F)F)cc2)cnc1C(=O)NCC1(O)CC1 has what recorded EC50?
361

Also CC(C)(C)C1CCN(S(=O)(=O)c2cnc(C(=O)NCC(O)C(F)(F)F)c(N)c2)CC1 (stereo not shown) , if possible.
337

* * *

- System Tested: CFTR G551D mutant (Homo sapiens, UniProt P13569, G551D)
- Assay Info: YFP-halide influx assay for the CFTR-G551D mutation (HEK293 cells)
- Test Settings: forskolin 10.67 μM
Can you tell me EC50 for the items I'm about to list?
API: value field is a number in µM; no unit string.

Value lookup for EC50; key = C[C@H](O)CNC(=O)c1ncc(S(=O)(=O)c2ccc(OC(F)(F)F)cc2)cc1N [Compound 21]
1.2

Now consider Nc1cc(S(=O)(=O)c2ccc(C(F)(F)F)cc2)cnc1C(=O)N[C@@H]1COCC[C@@H]1O (racemic) [Compound 216] and answer again.
1.14

Please answer likewise for CC1(C)CN(C(=O)c2ncc(S(=O)(=O)c3ccc(OC(F)(F)F)cc3)cc2N)C1 [Compound 59]
1.63

Further, for C[C@H](O)CNC(=O)c1ncc(S(=O)(=O)c2ccc(C(F)(F)F)cc2F)cc1N [Compound 98] ?
0.685

And for Nc1cc(S(=O)(=O)c2ccc(OC(F)(F)F)cc2)cnc1C(=O)NC[C@@H](O)C(F)(F)F [Compound 37] ?
0.271

Same for CC(C)NC(=O)CNC(=O)c1ncc(S(=O)(=O)c2ccc(C(F)(F)F)cc2F)cc1N [Compound 113]
0.297

What do you get for Nc1cc(S(=O)(=O)c2ccc(OC(F)(F)F)cc2F)cnc1C(=O)NCC(O)COCC1CC1 (centres unmarked) [Compound 169] ?
1.12

What about Nc1cc(S(=O)(=O)c2ccc(OC(F)(F)F)cc2)cnc1C(=O)NC1COC2(CCCC2)C1 (centres unmarked) [Compound 150] ?
1.07
